target: furin, P09958; test: furin cleavage Z-score vs untreated control; higher = more cleavage, active = 3.5 or more, inactive = 1 or less, 8 variable residues between constant flanks; settings: 15 min;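 also: purified furin at 1:10 enzyme:substrate in 50 mM HEPES pH 7.5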
Sequence (P09958 whole entry): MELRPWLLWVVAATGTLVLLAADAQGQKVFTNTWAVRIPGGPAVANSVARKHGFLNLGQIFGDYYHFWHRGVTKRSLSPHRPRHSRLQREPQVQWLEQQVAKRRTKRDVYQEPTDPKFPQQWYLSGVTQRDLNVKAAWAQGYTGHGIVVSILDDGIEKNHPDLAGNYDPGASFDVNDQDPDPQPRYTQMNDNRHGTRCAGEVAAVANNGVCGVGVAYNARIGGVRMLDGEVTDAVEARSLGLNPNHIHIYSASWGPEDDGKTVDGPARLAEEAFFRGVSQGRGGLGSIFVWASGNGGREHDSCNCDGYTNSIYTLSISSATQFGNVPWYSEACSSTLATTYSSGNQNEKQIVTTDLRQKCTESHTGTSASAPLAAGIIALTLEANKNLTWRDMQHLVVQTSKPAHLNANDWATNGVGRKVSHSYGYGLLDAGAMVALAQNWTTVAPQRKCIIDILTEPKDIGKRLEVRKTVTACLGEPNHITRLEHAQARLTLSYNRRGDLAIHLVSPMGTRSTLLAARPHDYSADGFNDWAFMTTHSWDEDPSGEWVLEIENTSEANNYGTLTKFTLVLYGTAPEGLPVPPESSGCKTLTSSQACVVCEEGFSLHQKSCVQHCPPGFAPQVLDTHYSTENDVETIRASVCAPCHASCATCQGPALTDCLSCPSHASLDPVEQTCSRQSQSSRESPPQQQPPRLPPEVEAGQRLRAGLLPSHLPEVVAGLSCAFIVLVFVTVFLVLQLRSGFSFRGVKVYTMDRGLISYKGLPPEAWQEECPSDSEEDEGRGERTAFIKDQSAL
The list shows a part of the results. No count for the full screen is at hand.
Recorded Metric: furin cleavage Z-score
No unit in the answer, please; the number alone is enough.

Some solved entries appear below for comparison.
q: Name the recorded furin cleavage Z-score for CARRKREVQMAGNASASA [FS-2779] .
a: 7.05

q: Next: CADAARVARFAGNASASA [FS-220]
a: 3.12

q: Also CARRVRSYGQAGNASASA [FS-2084] ?
a: 4.27

Others:
q: // furin cleavage Z-score lookup, key: CALSKRSLRDAGNASASA [FS-1373]
a: 8.19
